# System: HEK-293T
# experimentDescription: Multiplex assay against HEK293T
# Assay type: toxicity, cell-based
# experimentalContext: human, 12 h, 1 µM, compound concentration 1 uM, replicate 2
Record y whenever Population Pyknosed Nuclei (%) is at 40% or higher; record n when lower.

Q: # bool: Population Pyknosed Nuclei (%) of `CCOC(=O)Nc1cc(-c2ccc(C)c(NS(C)(=O)=O)c2)nn2c(C)nnc12` >= 40%
Ans: n

Q: # bool: Population Pyknosed Nuclei (%) of `C[C@]12CC[C@@H]3c4ccc(O)cc4CC[C@H]3[C@@H]1CC[C@@H]2O` >= 40%
Ans: y

Q: # bool: Population Pyknosed Nuclei (%) of `CC(C)(C)NC[C@H](O)COc1nsnc1N1CCOCC1` >= 40%
Ans: y

Q: # bool: Population Pyknosed Nuclei (%) of `C=CC(=O)Nc1cccc(Sc2nc(Nc3ccc(N4CCN(C)CC4)cc3)ncc2Cl)c1` >= 40%
Ans: n

Q: # bool: Population Pyknosed Nuclei (%) of Cc1cccc(CN2CCN(C(c3ccccc3)c3ccc(Cl)cc3)CC2)c1.Cl.Cl (stereo not given) >= 40%
Ans: y

Q: # bool: Population Pyknosed Nuclei (%) of `CCc1ccc(OCc2ccccc2C(=O)Nc2ccc3nc(C)cc(N)c3c2)cc1.Cl` >= 40%
Ans: y

Q: # bool: Population Pyknosed Nuclei (%) of `CN1CCN(Cc2ccc(Nc3ncc(Cl)c(Nc4ccccc4S(=O)(=O)N(C)C)n3)cc2)CC1` >= 40%
Ans: n

Q: # bool: Population Pyknosed Nuclei (%) of `Cl.O=C(O)c1cc(-c2ccc(C3CCNCC3)cc2)c2ccc(-c3ccc(C(F)(F)F)cc3)cc2c1` >= 40%
Ans: y

Q: # bool: Population Pyknosed Nuclei (%) of `COc1ccccc1CN[C@H]1C2CCN(CC2)[C@H]1C(c1ccccc1)c1ccccc1` >= 40%
Ans: y

###

# System: Fibroblast
# experimentDescription: Multiplex assay against human fibroblast
# Format: toxicity, cell-based
# experimentalContext: 24 h, 1 µM, compound concentration 1 uM, replicate 1
Record met whenever Population Mitochondria Different-Phenotype (%) is at 5% or higher; record not met when lower.

Q: # bool: Population Mitochondria Different-Phenotype (%) of `Cc1nc(N2CC[C@H](O)C2)ncc1-c1cc(C(F)(F)F)cc2[nH]ncc12` >= 5%
Ans: met

Q: # bool: Population Mitochondria Different-Phenotype (%) of COc1cc2ncn(-c3cc(OCc4ccccc4C(F)(F)F)c(C(N)=O)s3)c2cc1OC [GW843682X] >= 5%
Ans: met

Q: # bool: Population Mitochondria Different-Phenotype (%) of C[C@]12CC[C@@H]3c4ccc(O)cc4CC[C@H]3[C@@H]1CC[C@@H]2O [ESTRADIOL] >= 5%
Ans: not met

Q: # bool: Population Mitochondria Different-Phenotype (%) of O=C(c1cc2c(cc1F)OC(c1ccc(F)cc1)(c1ccc(Cl)cc1Cl)O2)N1CCOCC1 (stereo not given) >= 5%
Ans: met

###

# Tested on: HEK-293T
# experimentDescription: Multiplex assay against HEK293T
# Type: toxicity, cell-based
# experimentalContext: human, 12 h, 1 µM, compound concentration 1 uM, replicate 2
For each entry below, report its Population Mitochondria Different-Phenotype (%) value.
Your answer should be a plain number; it is taken to be in %.

Q: What Population Mitochondria Different-Phenotype (%) value was documented for this molecule, `CC(C)OC(=O)N1CCC(Oc2ncnc3c2cnn3-c2ccc(S(C)(=O)=O)cc2F)CC1` ?
Ans: 11

Q: What Population Mitochondria Different-Phenotype (%) value was documented for this molecule, `C=CC(=O)Nc1ccc2[nH]c(=O)n(C3CCN(Cc4ccc(-c5nc6cc[nH]c(=O)c6cc5-c5ccccc5)cc4)CC3)c2c1` ?
Ans: 12

Q: What Population Mitochondria Different-Phenotype (%) value was documented for this molecule, `CC(C)NC(=O)N1CC[C@H](NC2=Nc3cc(F)ccc3N(CC(F)F)c3ccc(Cl)cc32)C1` ?
Ans: 24

Q: What Population Mitochondria Different-Phenotype (%) value was documented for this molecule, `O=c1cc(N2CCOCC2)oc2c(-c3cccc4c3sc3ccccc34)cccc12` ?
Ans: 20

Q: What Population Mitochondria Different-Phenotype (%) value was documented for this molecule, `C[C@]12CC[C@@H]3c4ccc(O)cc4CC[C@H]3[C@@H]1CC[C@@H]2O` ?
Ans: 10

Q: What Population Mitochondria Different-Phenotype (%) value was documented for this molecule, `Cc1c[nH]c2nccc(Oc3c(F)cc(Nc4cc(Cl)nc(N)n4)cc3F)c12` ?
Ans: 8
